target: CB1 (Rattus norvegicus); assay: GTPγS binding assay, CB1 functional assay in rat cerebellar membrane (Protocol VIII); type: biochemical; set-up: 10 μg rat cerebellum membrane; from tissue; host or cells: rat cerebellum membrane, prepared in-house; conditions: 1 h, GTPγS binding over basal, rat cerebellar membrane, tested at 1 uM; read-out: Per Se % Stimulation
Below is a list of entries, each paired with its recorded activation at 1 µM value.
readoutType: activation at 1 µM (%)

{"columns": ["compound", "measurementUnits", "valueMeasured"],
 "data": [
  ["O=C(NNc1ccccc1F)c1nn(-c2ccc(Cl)cc2Cl)c2c1C1CCC2C1 (stereo not shown)", "%", -0.1],
  ["O=C(NNc1ccc(Cl)cc1Cl)c1nn(-c2ccc(Cl)cc2Cl)c2c1C1CCC2C1 (stereo not shown)", "%", 38],
  ["O=C(NC1CCCC1)c1nn(-c2ccc(Cl)cc2)c2c1C1CCC2C1 (stereo not shown)", "%", -13.8],
  ["O=C(NCC1CCCCC1)c1nn(-c2ccc(Cl)cc2Cl)c2c1C1CCC2C1 (stereo not shown)", "%", 0.4],
  ["O=C(NNc1ccc(Cl)cc1Cl)c1n[nH]c2c1C1(c3ccc(Cl)cc3)CCC2C1 (stereo not shown)", "%", 42.4],
  ["O=C(NC1CCCCC1)c1nn(-c2ccc(F)cc2F)c2c1C1CCC2C1 (stereo not shown)", "%", 3.8],
  ["O=C(NC1CCCCC1)c1nn(-c2ccc(Cl)cc2)c2c1C1CC3CC(C1)CC2C3", "%", -10],
  ["O=C(NN1CCCCC1)c1nn(-c2ccc(Cl)cc2Cl)c2c1C1CC3CC(C1)CC2C3", "%", 10],
  ["CN(NC(=O)c1nn(-c2ccc(Cl)cc2)c2c1C1CC3CC(C1)CC2C3)C1CCCCC1", "%", 4],
  ["O=C(NN1CCCCC1)c1nn(-c2ccc(Cl)cc2Cl)c2c1C1CCC2c2ccccc21 (stereo not shown)", "%", 1.8],
  ["O=C(NCc1ccccc1)c1nn(-c2ccc(Cl)cc2Cl)c2c1C1CCC2c2ccccc21 (stereo not shown)", "%", 53.7],
  ["O=C(NCCc1ccccc1)c1nn(-c2ccc(Cl)cc2Cl)c2c1C1CC3CC(C1)CC2C3", "%", -0.7],
  ["O=C(NNc1ccccc1Cl)c1nn(-c2ccc(Cl)cc2Cl)c2c1C1CC3CC(C1)CC2C3", "%", -20.8],
  ["O=C(NNc1ccccc1Cl)c1nn(-c2ccc(Cl)cc2)c2c1C1CC3CC(C1)CC2C3", "%", 13.5],
  ["O=C(NN1CCCCC1)c1nn(-c2ccc(F)cc2F)c2c1C1CC3CC(C1)CC2C3", "%", 43.1],
  ["O=C(NCc1ccc(F)cc1)c1nn(-c2ccc(Cl)cc2Cl)c2c1C1CC3CC(C1)CC2C3", "%", -18.3],
  ["O=C(NCc1ccccc1Cl)c1nn(-c2ccc(Cl)cc2)c2c1C1CCC2C1 (stereo not shown)", "%", -16.7],
  ["O=C(NN(c1ccccc1)c1ccccc1)c1nn(-c2ccc(Cl)cc2)c2c1C1CC3CC(C1)CC2C3", "%", 13],
  ["O=C(NNc1ccccc1Cl)c1nn(-c2ccc(Cl)cc2Cl)c2c1C1CCC2C1 (stereo not shown)", "%", -5.1],
  ["O=C(NNc1ccc(F)cc1F)c1nn(-c2ccc(Cl)cc2)c2c1C1CC3CC(C1)CC2C3", "%", 7.2],
  ["O=C(NCc1ccccc1Cl)c1nn(-c2ccc(Cl)cc2)c2c1C1CC3CC(C1)CC2C3", "%", 6.1],
  ["O=C(NCc1ccccc1Br)c1nn(-c2ccc(Cl)cc2)c2c1C1CCC2C1 (stereo not shown)", "%", 5],
  ["O=C(NNc1ccc(Cl)cc1Cl)c1nn(-c2ccc(Cl)cc2)c2c1C1CC3CC(C1)CC2C3", "%", -7.9],
  ["Cl.O=C(NNc1ccc(F)cc1)c1nn(-c2ccc(Cl)cc2)c2c1C1CC3CC(C1)CC2C3 [Example 131, hydrochloride]", "%", -1.7],
  ["O=C(NNc1cccc(F)c1)c1nn(-c2ccc(Cl)cc2)c2c1C1CCC2C1 (stereo not shown)", "%", -16.3],
  ["O=C(NC1CCCCC1)c1nn(-c2ccc(Cl)cc2Cl)c2c1C1CCC2C1 (stereo not shown)", "%", 7.1],
  ["O=C(NNc1ccccc1)c1nn(-c2ccc(Cl)cc2Cl)c2c1C1CC3CC(C1)CC2C3", "%", 1.3],
  ["O=C(NCc1ccccc1)c1nn(-c2ccc(Cl)cc2Cl)c2c1C1CCC2C1 (stereo not shown)", "%", 6],
  ["O=C(NN1CCCCC1)c1nn(-c2ccc(Cl)cc2Cl)c2c1C1CCC2C1 (stereo not shown)", "%", 29.1],
  ["O=C(NNc1ccccc1)c1nn(-c2ccc(Cl)cc2Cl)c2c1C1CCC2C1 (stereo not shown)", "%", -21.5],
  ["O=C(NCc1ccc(F)cc1)c1nn(-c2ccc(Cl)cc2Cl)c2c1C1CCC2C1 (stereo not shown)", "%", 0.7]
]}

* * *

Below is a list of entries, each paired with its recorded Per Se % Stimulation value.
target: CB1 (Rattus norvegicus, UniProt P20272); assay: GTPγS binding assay, CB1 functional assay in rat cerebellar membrane (Protocol VIII); format: biochemical; design: 10 μg rat cerebellum membrane; from tissue; host or cells: rat cerebellum membrane, prepared in-house; conditions: GTPγS binding over basal, rat cerebellar membrane, tested at 1 uM
Sequence (P20272 whole entry): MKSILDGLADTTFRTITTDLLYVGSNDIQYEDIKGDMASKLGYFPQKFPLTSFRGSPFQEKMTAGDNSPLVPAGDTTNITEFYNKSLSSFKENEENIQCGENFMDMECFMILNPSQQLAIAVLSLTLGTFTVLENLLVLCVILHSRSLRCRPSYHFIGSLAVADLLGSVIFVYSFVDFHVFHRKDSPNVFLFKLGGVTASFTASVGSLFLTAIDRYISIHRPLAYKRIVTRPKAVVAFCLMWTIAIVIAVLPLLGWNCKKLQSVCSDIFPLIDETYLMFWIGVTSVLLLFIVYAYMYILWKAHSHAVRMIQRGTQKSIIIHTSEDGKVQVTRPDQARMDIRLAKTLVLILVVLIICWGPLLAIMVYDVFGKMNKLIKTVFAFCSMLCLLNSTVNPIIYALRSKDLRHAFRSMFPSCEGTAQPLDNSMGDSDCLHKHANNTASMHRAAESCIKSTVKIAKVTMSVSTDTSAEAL
readoutType: Per Se % Stimulation (%)

{"columns": ["molecule", "valueMeasured"],
 "data": [
  ["CN(NC(=O)c1nn(-c2ccc(Cl)cc2)c2c1C1CC3CC(C1)CC2C3)c1ccc(Cl)cc1Cl", 18.0],
  ["CN(NC(=O)c1nn(-c2ccc(Cl)cc2Cl)c2c1C1CCC2c2ccccc21)c1ccc(Cl)cc1Cl (stereo not shown)", 15.6],
  ["O=C(NN(c1ccccc1)c1ccccc1)c1nn(-c2ccc(Cl)cc2)c2c1C1CCC2C1 (stereo not shown)", 8.0],
  ["O=C(NN1CCCCC1)c1nn(-c2ccccc2Cl)c2c1C1CC3CC(C1)CC2C3", 9.5],
  ["O=C(NN(c1ccccc1)c1ccccc1)c1nn(-c2ccc(Cl)cc2Cl)c2c1C1CC3CC(C1)CC2C3", 9.7],
  ["O=C(NN1CCCCC1)c1nn(-c2ccc(Cl)cc2)c2c1C1CC3CC(C1)CC2C3", 24.9],
  ["Cl.O=C(NN1CCCCC1)c1nn(-c2ccc(Cl)cc2Cl)c2c1C1CCC2c2ccccc21 (stereo not shown)", 1.5],
  ["O=C(NCc1ccccc1)c1nn(-c2ccc(Cl)cc2)c2c1C1CC3CC(C1)CC2C3", "−8.5"],
  ["O=C(NC1CCCCC1)c1nn(-c2ccccc2Cl)c2c1C1CC3CC(C1)CC2C3", 13.0],
  ["Cl.O=C(NNc1ccccc1)c1nn(-c2ccc(Cl)cc2)c2c1C1CC3CC(C1)CC2C3", 1.2],
  ["O=C(NCc1ccccc1)c1nn(-c2ccc(Cl)cc2Cl)c2c1C1CC3CC(C1)CC2C3", 7.8],
  ["O=C(NCc1ccccc1)c1nn(-c2ccccc2)c2c1C1CC3CC(C1)CC2C3", 17.5],
  ["O=C(NNc1ccccc1)c1nn(-c2ccc(Cl)cc2)c2c1C1CC3CC(C1)CC2C3", 16.0]
]}

* * *

{"columns": ["molecule", "melting point"],
 "data": [
  ["O=C(NNc1ccccc1Cl)c1nn(-c2ccc(Cl)cc2Cl)c2c1C1CC3CC(C1)CC2C3 [Example 174]", "110 °C"],
  ["O=C(NC1CC1)c1nn(-c2ccc(F)cc2F)c2c1C1CCC2C1 (centres unmarked) [Example 317]", "59 to 61 °C"],
  ["O=C(NC12CC3CC(CC(C3)C1)C2)c1nn(-c2ccc(Cl)cc2Cl)c2c1C1CCC2C1 (centres unmarked) [Example 242]", "201 to 204 °C"],
  ["O=C(NC1CCCCC1)c1nn(-c2ccccc2Cl)c2c1C1CCC2C1 (centres unmarked) [Example 206]", "171 °C"],
  ["CCC(CC)(NC(=O)c1nn(-c2ccc(F)cc2F)c2c1C1CCC2C1)c1ccccc1 (centres unmarked) [Example 299]", "45 to 48 °C"],
  ["CC12CCC(c3c(C(=O)NNc4ccccc4F)nn(-c4ccc(Cl)cc4Cl)c31)C2(C)C (centres unmarked) [Example 402]", "72 to 80 °C"],
  ["O=C(NC12CC3CC(CC(C3)C1)C2)c1nn(-c2ccc(F)cc2)c2c1C1CCC2C1 (centres unmarked) [Example 283]", "189 to 191 °C"],
  ["O=C(NNc1ccccc1F)c1nn(-c2ccc(Br)cc2)c2c1C1CCC2C1 (centres unmarked) [Example 278]", "123 °C"]
]}

* * *

Below is a list of entries, each paired with its recorded % Inhibition of WIN-55212-2 induced stimulation value.
molecular target: CB1 (Rattus norvegicus, UniProt P20272); test: GTPγS binding assay, CB1 functional assay in rat cerebellar membrane (Protocol VIII); type: biochemical; design: 10 μg rat cerebellum membrane; from tissue; host or cells: rat cerebellum membrane, prepared in-house; settings: GTPγS binding, tested at 1 uM in presence of 1 μM WIN 55,212-2
readoutType: % Inhibition of WIN-55212-2 induced stimulation (%)

{"columns": ["molecule", "valueMeasured"],
 "data": [
  ["Cl.O=C(NN1CCCCC1)c1nn(-c2ccc(Cl)cc2Cl)c2c1C1CCC2c2ccccc21 (centres unmarked) [Example 503]", 92.0],
  ["Cl.O=C(NNc1ccccc1)c1nn(-c2ccc(Cl)cc2)c2c1C1CC3CC(C1)CC2C3 [Example 122]", 59.3],
  ["O=C(NCc1ccccc1)c1nn(-c2ccc(Cl)cc2Cl)c2c1C1CC3CC(C1)CC2C3 [Example 179]", 89.7],
  ["O=C(NNc1ccccc1)c1nn(-c2ccc(Cl)cc2)c2c1C1CC3CC(C1)CC2C3 [Example 121]", 81.3],
  ["O=C(NN1CCCCC1)c1nn(-c2ccccc2Cl)c2c1C1CC3CC(C1)CC2C3 [Example 184]", 75.9],
  ["O=C(NC1CCCCC1)c1nn(-c2ccccc2Cl)c2c1C1CC3CC(C1)CC2C3 [Example 183]", 72.5],
  ["O=C(NN1CCCCC1)c1nn(-c2ccc(Cl)cc2)c2c1C1CC3CC(C1)CC2C3 [Example 140]", 71.9],
  ["O=C(NCc1ccccc1)c1nn(-c2ccc(Cl)cc2)c2c1C1CC3CC(C1)CC2C3 [Example 139]", 109.1]
]}
